- test_target: JAK2 (catalytic domain, His-tag) (Homo sapiens, UniProt O60674)
- Construct: All four purified enzymes contain only the catalytic domain; His (N); purchased Carna Biosciences, Inc; host or cells: baculovirus expression system
- Sequence (O60674 849-1124 limits assumed): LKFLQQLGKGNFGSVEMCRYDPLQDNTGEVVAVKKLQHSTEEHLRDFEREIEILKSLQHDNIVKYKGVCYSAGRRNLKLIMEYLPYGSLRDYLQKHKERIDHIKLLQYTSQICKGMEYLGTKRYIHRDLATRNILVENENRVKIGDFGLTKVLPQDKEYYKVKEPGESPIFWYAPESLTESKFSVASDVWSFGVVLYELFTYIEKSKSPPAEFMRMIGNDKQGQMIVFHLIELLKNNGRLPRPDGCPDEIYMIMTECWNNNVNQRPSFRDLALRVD
- test_details: JAK kinase assay (HTRF, phosphorylation of TK substrate-biotin), JAK2
- Format: biochemical
- experimental_setup: ATP at Km (4 μM); read-out: JAK2 kinase inhibitory activity (EC50 indicator)
pEC50: −log10 of the molar value.
Below, each entry is listed alongside its reported pEC50.

Some compounds with known pEC50 results, for comparison:
CC(C)(C)OC(=O)N1[C@@H]2CC[C@H]1CN(c1ncnc3[nH]ccc13)C2
> 7.00
N#Cc1ccccc1CC(=O)N1CCN(c2ncnc3[nH]ccc23)CC12CC2
> 7.00
N#Cc1ccc(C(=O)N2CCN(c3ncnc4[nH]ccc34)CC23CC3)c(F)c1
> 7.00
CC(=O)OCC(=O)Nc1nc(N2CCN(C(=O)Cc3ccc(C#N)cc3)C3(CC3)C2)c2cc[nH]c2n1
> 7.00
Cc1cc2[nH]c(C(=O)N3[C@@H]4CC[C@H]3CN(c3ncnc5[nH]ccc35)C4)cc2cc1F
6.30 to 7.00
O=C(Cc1ccncc1)N1[C@@H]2CC[C@@H]1CN(c1ncnc3[nH]ccc13)C2
6.30 to 7.00

pEC50 for N#Cc1ccc2[nH]c(C(=O)N3C4CCC3CN(c3ncnc5[nH]ccc35)C4)cc2c1 is > 7.00

pEC50 for O=C(c1cccc2[nH]ccc12)N1CCN(c2ncnc3[nH]ccc23)CC12CC2 is > 7.00

pEC50 for NS(=O)(=O)c1ccc(CC(=O)N2CCN(c3ncnc4[nH]ccc34)CC23CC3)cc1 is > 7.00

pEC50 for Cc1ccc2[nH]c(C(=O)N3C4CCC3CN(c3ncnc5[nH]ccc35)C4)cc2c1 is > 7.00

pEC50 for Cc1ccc(C(=O)N2CCN(c3ncnc4[nH]ccc34)CC23CC3)s1 is > 7.00

pEC50 for O=C(c1ccc(-c2ccccc2)cc1)N1CCN(c2ncnc3[nH]ccc23)CC12CC2 is > 7.00

pEC50 for N#Cc1ccc(CS(=O)(=O)N2[C@@H]3CC[C@H]2CN(c2ncnc4[nH]ccc24)C3)cc1 is 6.30 to 7.00

---

Below, each entry is listed alongside its reported pEC50.
- test_target: JAK3 (catalytic domain, His-tag) (Homo sapiens, UniProt P52333)
- Construct: All four purified enzymes contain only the catalytic domain; His (N); purchased Carna Biosciences, Inc; host or cells: baculovirus expression system
- Sequence (P52333 822-1111 limits assumed): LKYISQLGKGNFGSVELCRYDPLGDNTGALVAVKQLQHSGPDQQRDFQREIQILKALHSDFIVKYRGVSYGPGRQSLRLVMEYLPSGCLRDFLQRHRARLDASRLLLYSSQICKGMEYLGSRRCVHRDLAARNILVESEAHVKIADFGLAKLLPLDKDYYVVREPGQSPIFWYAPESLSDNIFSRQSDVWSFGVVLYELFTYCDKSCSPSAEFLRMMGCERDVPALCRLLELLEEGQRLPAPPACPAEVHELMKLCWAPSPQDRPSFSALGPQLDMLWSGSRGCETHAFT
- test_details: JAK kinase assay (HTRF, phosphorylation of TK substrate-biotin), JAK3
- Format: biochemical
- experimental_setup: ATP at Km (2 μM); read-out: JAK3 kinase inhibitory activity (EC50 indicator)
pEC50: −log10 of the molar value.

N#CCOc1ccc(CC(=O)N2CCN(c3ncnc4[nH]ccc34)CC23CC3)cc1
> 7.00

pEC50 for N#Cc1ccc(C(=O)N2[C@@H]3CC[C@H]2CN(c2ncnc4[nH]ccc24)C3)s1 is > 7.00

pEC50 for O=C(CCC(F)(F)F)N1CCN(c2ncnc3[nH]ccc23)CC12CC2 is > 7.00

pEC50 for CC1CN(C(=O)CCC#N)C2(CC2)CN1c1ncnc2[nH]ccc12 (centres unmarked) is > 7.00

pEC50 for CS(=O)(=O)c1ccc(CC(=O)N2CCN(c3ncnc4[nH]ccc34)CC23CC3)cc1 is > 7.00

pEC50 for COC(=O)c1cc2c(N3CCN(C(=O)Cc4cccc(CC#N)c4)C4(CC4)C3)ncnc2[nH]1 is < 6.30

pEC50 for NS(=O)(=O)c1ccc(C(=O)N2CCN(c3ncnc4[nH]ccc34)CC23CC3)o1 is > 7.00

pEC50 for O=C(c1cccc(OC(F)(F)F)c1)N1CCN(c2ncnc3[nH]ccc23)CC12CC2 is 6.30 to 7.00

pEC50 for O=C(c1ncco1)N1[C@@H]2CC[C@@H]1CN(c1ncnc3[nH]ccc13)C2 is 6.30 to 7.00

pEC50 for Cn1c(C(=O)N2CCN(c3ncnc4[nH]ccc34)CC23CC3)ccc1S(N)(=O)=O is > 7.00

pEC50 for CS(=O)(=O)CCC(=O)N1CCN(c2ncnc3[nH]ccc23)CC12CC2 is 6.30 to 7.00

---

- test_target: JAK2 (catalytic domain, His-tag) (Homo sapiens, UniProt O60674)
- Construct: All four purified enzymes contain only the catalytic domain; His (N); purchased Carna Biosciences, Inc; host or cells: baculovirus expression system
- test_details: JAK kinase assay (HTRF, phosphorylation of TK substrate-biotin), JAK2
- Assay type: biochemical
- experimental_setup: ATP at Km (4 μM); read-out: JAK2 kinase inhibitory activity (EC50 indicator)
result_type: EC50

Some compounds with known EC50 results, for comparison:
N#Cc1ccc(C(=O)N2[C@@H]3CC[C@H]2CN(c2ncnc4[nH]ccc24)C3)cc1
< 100 nM
O=C(c1cnc2ccccc2c1)N1CCN(c2ncnc3[nH]ccc23)CC12CC2
< 100 nM
O=C(c1ccccn1)N1CCN(c2ncnc3[nH]ccc23)CC12CC2
< 100 nM
O=C(CCc1ccccc1)N1[C@@H]2CC[C@@H]1CN(c1ncnc3[nH]ccc13)C2
< 100 nM

EC50 for COC(=O)c1cc2c(N3CCN(C(=O)Cc4cccc(CC#N)c4)C4(CC4)C3)ncnc2[nH]1 is > 500 nM

---

- test_target: JAK3 (catalytic domain, His-tag) (Homo sapiens, UniProt P52333)
- Construct: All four purified enzymes contain only the catalytic domain; His (N); purchased Carna Biosciences, Inc; host or cells: baculovirus expression system
- test_details: JAK kinase assay (HTRF, phosphorylation of TK substrate-biotin), JAK3
- Assay type: biochemical
- experimental_setup: ATP at Km (2 μM); read-out: JAK3 kinase inhibitory activity (EC50 indicator)
Below, each entry is listed alongside its reported EC50.

S=C(NCc1ccccc1)N1[C@@H]2CC[C@H]1CN(c1ncnc3[nH]ccc13)C2
0.1 to 0.5 µM
COCCOC(=O)N1[C@@H]2CC[C@H]1CN(c1ncnc3[nH]ccc13)C2
> 0.5 µM
O=C(c1cccc(O)n1)N1CCN(c2ncnc3[nH]ccc23)CC12CC2
0.1 to 0.5 µM
O=C(c1cnc2ccccc2n1)N1CCN(c2ncnc3[nH]ccc23)CC12CC2
< 0.1 µM
NC(=O)c1ccc(C(=O)N2CCN(c3ncnc4[nH]ccc34)CC23CC3)cc1
0.1 to 0.5 µM
O=C(N1CCN(c2ncnc3[nH]ccc23)CC12CC2)C1(c2ccccc2)CC1
> 0.5 µM
N#Cc1cccc(CS(=O)(=O)N2CCN(c3ncnc4[nH]ccc34)CC23CC3)c1
0.1 to 0.5 µM
CC(C#N)c1cccc(C(=O)N2CCN(c3ncnc4[nH]ccc34)CC23CC3)c1 (stereo not drawn)
0.1 to 0.5 µM

EC50 for COC(=O)c1cc2c(N3CCN(C(=O)Cc4ccc(CC#N)cc4)C4(CC4)C3)ncnc2[nH]1 is > 0.5 µM

EC50 for N#Cc1cccc(CC(=O)N2[C@@H]3CC[C@@H]2CN(c2ncnc4[nH]ccc24)C3)c1 is > 0.5 µM

EC50 for CNS(=O)(=O)c1ccc(C(=O)N2CCN(c3ncnc4[nH]ccc34)CC23CC3)cc1 is < 0.1 µM

EC50 for O=C(c1ccccn1)N1CCN(c2ncnc3[nH]ccc23)CC12CC2 is 0.1 to 0.5 µM

EC50 for O=C(CC1CCCC1)N1[C@@H]2CC[C@H]1CN(c1ncnc3[nH]ccc13)C2 is 0.1 to 0.5 µM

EC50 for Cc1ccc(C(=O)N2C3CCC2CN(c2ncnc4[nH]ccc24)C3)cc1S(N)(=O)=O is < 0.1 µM

EC50 for O=C(Cc1cccs1)N1[C@@H]2CC[C@H]1CN(c1ncnc3[nH]ccc13)C2 is 0.1 to 0.5 µM

---

- test_target: JAK1 (aa 850-1154, catalytic domain, GST-tag) (Homo sapiens)
- Construct: JAK1 (aa 850-1154) and TYK2 (aa 871-1187) are expressed with an N-terminally fused GST-tag; GST (N); purchased Carna Biosciences, Inc; host or cells: baculovirus expression system
- Sequence (P23458 850-1154): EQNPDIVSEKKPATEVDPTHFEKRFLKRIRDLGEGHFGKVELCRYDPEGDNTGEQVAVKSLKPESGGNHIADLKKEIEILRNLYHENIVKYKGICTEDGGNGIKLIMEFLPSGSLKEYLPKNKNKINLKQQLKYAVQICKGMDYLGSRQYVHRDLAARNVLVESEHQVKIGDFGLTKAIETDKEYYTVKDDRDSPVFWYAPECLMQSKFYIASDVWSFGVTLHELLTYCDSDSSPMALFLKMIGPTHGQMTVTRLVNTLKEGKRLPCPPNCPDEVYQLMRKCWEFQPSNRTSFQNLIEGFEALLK
- test_details: JAK kinase assay (HTRF, phosphorylation of TK substrate-biotin), JAK1
- Assay type: biochemical
- experimental_setup: HTRF assay, ATP at Km (7 μM); read-out: JAK1 kinase inhibitory activity (EC50 indicator)
Below, each entry is listed alongside its reported EC50.

Cc1cc(C(=O)N2CCN(c3ncnc4[nH]ccc34)CC23CC3)ccc1S(N)(=O)=O
< 0.1 µM

Considering O=C(c1ccccn1)N1CCN(c2ccnc3[nH]ccc23)CC12CC2 , its EC50 with JAK1 (aa 850-1154, catalytic domain, GST-tag) (Homo sapiens) was recorded as 0.1 to 0.5 µM

Considering O=C(c1ccc(S(=O)(=O)NCc2ccco2)cc1)N1CCN(c2ncnc3[nH]ccc23)CC12CC2 , its EC50 with JAK1 (aa 850-1154, catalytic domain, GST-tag) (Homo sapiens) was recorded as < 0.1 µM

Considering NS(=O)(=O)c1ccc(C(=O)N2[C@@H]3CC[C@@H]2CN(c2ncnc4[nH]ccc24)C3)cc1 , its EC50 with JAK1 (aa 850-1154, catalytic domain, GST-tag) (Homo sapiens) was recorded as < 0.1 µM

Considering Cc1cc(S(N)(=O)=O)ccc1C(=O)N1CCN(c2ncnc3[nH]ccc23)CC12CC2 , its EC50 with JAK1 (aa 850-1154, catalytic domain, GST-tag) (Homo sapiens) was recorded as < 0.1 µM

Considering N#Cc1ccc(C(=O)N2[C@@H]3CC[C@@H]2CN(c2ncnc4[nH]ccc24)C3)cc1F , its EC50 with JAK1 (aa 850-1154, catalytic domain, GST-tag) (Homo sapiens) was recorded as < 0.1 µM
